Biological target: T1, NPHP1-SH3 (15N-labelled SH3 domain of nephrocystin-1 for NMR and ITC) (human, UniProt O15259 147-212)
T1 construct: Nephrocystin-1 (NPHP1), human, SH3 domain, codons 147-212, expressed from pGEX-2T; 15N isotope label for NMR; also called 15N NPHP1-SH3
T1 sequence (looked up): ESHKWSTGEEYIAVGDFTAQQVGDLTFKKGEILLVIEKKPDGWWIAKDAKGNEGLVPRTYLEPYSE
Experiment: NMR titration; 1H-15N HSQC of 15N NPHP1-SH3 (0.3 mM) with added peptide (0, 0.5, 1, 1.5, 2, 3, 4 equivalents for peptPP2); fast exchange
Conditions: both partners purified
measure-name: pKd
API: returns pKd as number; meaning -log10 of concentration in mol/L.

Task: Record request: pKd value, item Ac-GLRPALPSRLARAS-NH2 (stretch of the PC-1 C-tail containing PP2 (P4267ALPSR4272), aminoacids 4264-4277; also called PP2 peptide; source: synthetic peptide, bought: CASLO (Lyngby, Denmark)) [peptPP2]
Result: 3.52
